The measured values listed here are drawn from PubChem BioAssay.

experiment: thallium flux effects in parental CHO cells, counter-screen for KCNQ1 inhibitor project, cell-based, Tl flux (AID 588366); conditions: parental CHO-K1, FluxOR thallium flux fluorescence ratio; at 10 µM; zero means no signal rise above baseline;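 further: ratio is peak minus minimum fluorescence divided by baseline fluorescence; actives read low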
The list shows a part of the results. Activity calls are given as the source filed them.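 How the source made its calls: active means mean of duplicate thallium-flux fluorescence ratios in parental host cells more than 5 SD below the buffer control mean (cut at about 0.38 in these data); inactive means the rest.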
Labels: t (active), f (inactive)

INSERT INTO measurements (compound, label) VALUES
  ('Clc1cccc(-c2nc(NCC3CCCO3)c3ccccc3n2)c1 (configuration not stated)', 'f'),
  ('CC(C)OCCCNc1ncnc2c1[nH]c1ccc(F)cc12', 'f'),
  ('O=C(NC(=S)Nc1ccccc1C(=O)O)c1ccc(-c2ccc(Br)cc2)o1', 'f'),
  ('CC(C)OC(=O)C(C#N)c1nc2ccccc2nc1N1CCN(Cc2ccccc2)CC1 (configuration not stated)', 'f'),
  ('CC(C(=O)NCC1CCCCC1)N(C)Cc1cccc(Cl)c1 (configuration not stated)', 'f'),
  ('COc1ccc(C(=O)NC2CCCc3c2cnn3-c2cccc(C)c2C)c(OC)n1 (configuration not stated)', 't'),
  ('O=C(Nc1cccc(Cl)c1)Nc1ccccc1NS(=O)(=O)c1cccs1', 't'),
  ('Cn1nccc1C(=O)NC1CCCc2c1cnn2-c1ccc(F)cc1F (configuration not stated)', 'f'),
  ('Cc1ccc(-c2noc(CC(c3ccccc3)c3ccccc3)n2)cc1', 'f'),
  ('FC(F)Oc1ccc(NC(=S)NCc2ccco2)cc1Cl', 'f'),
  ('CCNC(=O)c1ccc(OCC(=O)Nc2ccc(F)cc2)c(OC)c1', 'f'),
  ('Cc1nc(N2CCN(c3ccccn3)CC2)c2c(C)c(C(=O)Nc3ccc(F)cc3)sc2n1', 't');

----------
assay: nonspecific membrane potential effects, parental HEK293, confirmation, counter-screen for TRPC6 inhibitor project, cell-based, second counter screen (AID 2779); conditions: parental HEK293 membrane potential dye fluorescence; at 10 µM; maximal acetylcholine challenge after compound addition
This is one part of the list. Calls of active or inactive are those of the source.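 How the source made its calls: active means membrane potential signal moving either way by over 3 SD of the maximum-effect control, in both duplicate plates, meaning non-specific; inactive means the rest.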
Labels: yes = active, no = inactive

INSERT INTO measurements (compound, label) VALUES
  ('O=C(NNS(=O)(=O)c1ccc(Cl)cc1)C1CCN(Cc2ccccc2)CC1', 'yes'),
  ('CCOC(=O)N1CCC(O)(c2cc(C)c(C)cc2C)CC1', 'no'),
  ('COc1ccc(CC(=O)Nc2sc(Cc3ccccc3)c(C)c2C(N)=O)cc1', 'no'),
  ('CCN(CC)c1ccc2cc(C(N)=O)/c(=N\NC(=O)c3ccncc3)oc2c1', 'yes'),
  ('CN(C)c1ccc(C2N(C)C(=O)c3ccccc3N2C)cc1 (centres undefined)', 'yes'),
  ('CC(C)CCNc1nc(N2CCCC2)c2c(c1C#N)CCN(C)C2', 'no'),
  ('COc1ccccc1C1SCCN1C(=O)c1ccc([N+](=O)[O-])cc1 (centres undefined)', 'no'),
  ('CCOC(=O)N1CCC(NC(=O)CN2C(=O)COc3ccc(C(C)(C)C)cc32)CC1', 'no'),
  ('CC1CC(C)CN(C/C=C/c2ccccc2[N+](=O)[O-])C1 (centres undefined)', 'yes'),
  ('Cn1c(=O)n(C)c2cc(C(=O)Nc3ccc4c(c3)OCO4)ccc21', 'no'),
  ('CCN(CC)CCn1c2ccc(Cl)cc2c2nc(C)sc21', 'no'),
  ('OCCC1CN(Cc2ccc3nsnc3c2)CCN1C1CCCC1 (centres undefined)', 'no'),
  ('C=C(C)c1cccc(C(C)(C)NC(=O)NCCN(CC)CC)c1', 'no'),
  ('CCOC(=O)N1CCN(C(=O)c2ccc3c(c2)N(Cc2ccc(C)cc2)CCS3)CC1', 'yes');

----------
assay: thallium flux activation in parental CHO cells, counter-screen for KCNQ1 potentiator project (AID 493006); conditions: parental CHO-K1 cells, FluxOR thallium flux, at 10 µM;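 on activation: fluorescence ratio of max minus min over baseline after K+ and Tl+ depolarization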
Calls of active or inactive are those of the source.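 Rule for the calls: active = duplicate-averaged activation above buffer control mean plus 5 SD of those controls; inactive = the rest.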
Labels: y (active), n (inactive)

INSERT INTO measurements (compound, label) VALUES
  ('CCc1ccc2nc(N(CCCN(C)C)C(=O)c3ccc(S(=O)(=O)N4CCCc5ccccc54)cc3)sc2c1', 'n'),
  ('COc1cccc2sc(NNC(=O)c3nc4ccccc4s3)nc12', 'y'),
  ('FC(F)Sc1nc2ccccc2[nH]1', 'y'),
  ('CC1CCCCN1S(=O)(=O)c1ccc(S(=O)(=O)N(CC(=O)Nc2ccccc2)Cc2cccs2)cc1 (stereo not drawn)', 'n'),
  ('COc1ccc(-c2nonc2NC(=O)c2oc3ccccc3c2C)cc1OC', 'n'),
  ('CC1=NN(C(N)=S)C(=O)C1N=Nc1cccc(Cl)c1C (stereo not drawn)', 'y'),
  ('CC(C)(C)NC(=O)CN(C(=O)CNC(=O)c1cccs1)c1ccc2c(c1)OCCO2', 'n'),
  ('COCCN(C(=O)COC(=O)/C=C/c1cccs1)c1c(N)n(Cc2ccccc2)c(=O)[nH]c1=O', 'n'),
  ('CCOC(=O)C1CCCN(C(=O)Cn2sc3nc(C)cc(C)c3c2=O)C1 (stereo not drawn)', 'n'),
  ('CCOC(=O)c1sc(NN=C(C(=O)OC)C(=O)OC)c(C(=O)OCC)c1C', 'y'),
  ('COC(=O)C1=NN(C(=O)c2cccc(Br)c2)C(O)(c2ccc(Cl)cc2)C1 (stereo not drawn)', 'y'),
  ('C/C(=N\NC(=O)C(C)Sc1ccccc1)c1ccc([N+](=O)[O-])cc1 (stereo not drawn)', 'n'),
  ('COc1ccccc1C(=O)NNC(=O)C(=O)Nc1ccc(C)c(Cl)c1', 'y'),
  ('Cc1onc(-c2ccccc2)c1C(=O)NNC(=S)NC(=O)c1ccc(F)cc1', 'n'),
  ('Nc1c(C(=O)Nc2ccc(F)cc2)nnn1-c1cccc(C(F)(F)F)c1', 'n'),
  ('Cc1cccc(C)c1NC(=S)NC(=O)c1ccc(Br)o1', 'y'),
  ('O=C(c1cc([N+](=O)[O-])cc([N+](=O)[O-])c1)N1CCCc2ccccc21', 'n'),
  ('COC(=O)c1cnn(-c2ccc(Cl)cc2)c1/C=N/NC(N)=S', 'n'),
  ('CCOc1ncccc1C(=O)OCc1ccc(C#N)cc1', 'y'),
  ('Cc1ccc2cccnc2c1NC(=S)NC(=O)c1ccccc1', 'n'),
  ('S=c1nc[nH]c2c1[nH]c1ccc(Cl)cc12', 'n'),
  ('C/C(=N\Nc1nc2ccccc2s1)c1ccc(Br)s1', 'n'),
  ('Cc1cc(C)nc(N(C#N)CC(=O)c2ccccc2)n1', 'n');

----------
molecular target: Potassium voltage-gated channel subfamily KQT member 1 (Homo sapiens); assay: KCNQ1 potassium channel potentiators, confirmation, FluxOR thallium flux, CHO cells, duplicates (AID 493007); conditions: KCNQ1 cell line, FluxOR thallium flux fluorescence, at 10 µM, % of reference activator effect, buffer zero
Active and inactive are the calls of the source.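 The calls were made as follows: active = potentiation averaged over duplicate wells exceeding buffer-only control mean by more than 3 SD; inactive = the rest.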
Labels: active, inactive

INSERT INTO assay_data (compound, label) VALUES
  ('COc1cccc(C2C3=C(N=c4s/c(=C\c5ccc(OCC(=O)O)cc5)c(=O)n42)c2ccccc2CC3)c1 (stereo not given)', 'active'),
  ('C=CCn1c(O)c(N=NC(=S)Nc2ccc(OC)c(Cl)c2)c2ccccc21', 'active'),
  ('CC(=O)CC1(OC(C)=O)C(=O)N(C)c2ccccc21 (stereo not given)', 'inactive'),
  ('CC(Oc1ccc2ccccc2c1)C(=O)NNC(=S)NC(=O)c1ccco1 (stereo not given)', 'active'),
  ('Cc1cc(/C=N/n2cnnc2)c(C)n1-c1cc(Cl)ccc1Cl', 'inactive');

----------
target: Potassium voltage-gated channel subfamily KQT member 1 (Homo sapiens) (UniProt P51787); experiment: KCNQ1 potassium channel potentiators, confirmation, FluxOR thallium flux, CHO cells, duplicates (AID 493007); details: KCNQ1 cell line, FluxOR thallium flux fluorescence, at 10 µM, % of reference activator effect, buffer zero
Sequence (P51787 whole entry, looked up): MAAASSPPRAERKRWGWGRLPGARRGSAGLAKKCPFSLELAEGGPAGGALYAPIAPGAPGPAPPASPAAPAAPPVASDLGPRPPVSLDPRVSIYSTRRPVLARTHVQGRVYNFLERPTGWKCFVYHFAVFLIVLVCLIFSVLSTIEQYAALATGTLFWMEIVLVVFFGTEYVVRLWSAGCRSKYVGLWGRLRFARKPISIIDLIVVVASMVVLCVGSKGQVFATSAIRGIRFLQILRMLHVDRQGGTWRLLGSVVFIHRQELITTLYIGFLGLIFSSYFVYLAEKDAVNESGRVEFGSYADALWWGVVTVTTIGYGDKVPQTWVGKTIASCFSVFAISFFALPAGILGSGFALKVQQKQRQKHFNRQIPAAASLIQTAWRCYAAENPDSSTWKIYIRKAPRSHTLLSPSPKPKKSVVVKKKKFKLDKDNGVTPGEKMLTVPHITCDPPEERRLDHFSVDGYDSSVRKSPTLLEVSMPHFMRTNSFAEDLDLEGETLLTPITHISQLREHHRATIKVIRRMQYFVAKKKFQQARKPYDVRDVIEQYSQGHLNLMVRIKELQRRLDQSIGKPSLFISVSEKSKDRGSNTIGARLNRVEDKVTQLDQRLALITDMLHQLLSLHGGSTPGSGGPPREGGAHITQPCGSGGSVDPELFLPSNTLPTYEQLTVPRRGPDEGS
The source made the active and inactive calls.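 How the source made its calls: active means potentiation averaged over duplicate wells exceeding buffer-only control mean by more than 3 SD; inactive means the rest.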
Labels: active, inactive

INSERT INTO measurements (compound, target_under_test, label) VALUES
  ('COc1cccc2sc(N(CCCN(C)C)C(=O)c3ccc(S(=O)(=O)N4CCCc5ccccc54)cc3)nc12', 'Potassium voltage-gated channel subfamily KQT member 1 (Homo sapiens) (UniProt P51787)', 'inactive'),
  ('Cc1onc(-c2ccccc2)c1C(=O)NNC(=S)NC(=O)c1ccc(F)cc1', 'Potassium voltage-gated channel subfamily KQT member 1 (Homo sapiens) (UniProt P51787)', 'inactive'),
  ('CC(=O)Nc1cc(NC(C)=O)cc(C(=O)OC(C)C(=O)Nc2ccc(S(=O)(=O)N3CCCC3)cc2)c1 (stereo not given)', 'Potassium voltage-gated channel subfamily KQT member 1 (Homo sapiens) (UniProt P51787)', 'active'),
  ('CCOC(=O)c1c(C)[nH]c(C(=O)Cn2nnc(-c3ccccc3Cl)n2)c1C', 'Potassium voltage-gated channel subfamily KQT member 1 (Homo sapiens) (UniProt P51787)', 'inactive'),
  ('CCCc1cc(=O)[nH]c(SCC(=O)NC(=O)c2ccccc2)n1', 'Potassium voltage-gated channel subfamily KQT member 1 (Homo sapiens) (UniProt P51787)', 'inactive'),
  ('COc1ccc(C(=O)O/N=C(\N)Cc2ccc(Cl)cc2Cl)cc1OC', 'Potassium voltage-gated channel subfamily KQT member 1 (Homo sapiens) (UniProt P51787)', 'inactive'),
  ('CCC(C)c1ccccc1NC(=S)NC(=O)c1ccco1 (stereo not given)', 'Potassium voltage-gated channel subfamily KQT member 1 (Homo sapiens) (UniProt P51787)', 'active'),
  ('O=C(NC(=S)N1CCc2ccccc21)c1ccco1', 'Potassium voltage-gated channel subfamily KQT member 1 (Homo sapiens) (UniProt P51787)', 'active'),
  ('COc1ccc(OCC(=O)Nc2cccc(C(C)=O)c2)cc1', 'Potassium voltage-gated channel subfamily KQT member 1 (Homo sapiens) (UniProt P51787)', 'inactive'),
  ('CC(C)C(NC(=O)Nc1ccccc1)C(=O)Nc1cccc(S(=O)(=O)N(C)C)c1 (stereo not given)', 'Potassium voltage-gated channel subfamily KQT member 1 (Homo sapiens) (UniProt P51787)', 'active');
